All values here come from paper PMC12926254.

SYSTEM TESTED: 15-LOX (Glycine max)
Sequence (P08170 1-839): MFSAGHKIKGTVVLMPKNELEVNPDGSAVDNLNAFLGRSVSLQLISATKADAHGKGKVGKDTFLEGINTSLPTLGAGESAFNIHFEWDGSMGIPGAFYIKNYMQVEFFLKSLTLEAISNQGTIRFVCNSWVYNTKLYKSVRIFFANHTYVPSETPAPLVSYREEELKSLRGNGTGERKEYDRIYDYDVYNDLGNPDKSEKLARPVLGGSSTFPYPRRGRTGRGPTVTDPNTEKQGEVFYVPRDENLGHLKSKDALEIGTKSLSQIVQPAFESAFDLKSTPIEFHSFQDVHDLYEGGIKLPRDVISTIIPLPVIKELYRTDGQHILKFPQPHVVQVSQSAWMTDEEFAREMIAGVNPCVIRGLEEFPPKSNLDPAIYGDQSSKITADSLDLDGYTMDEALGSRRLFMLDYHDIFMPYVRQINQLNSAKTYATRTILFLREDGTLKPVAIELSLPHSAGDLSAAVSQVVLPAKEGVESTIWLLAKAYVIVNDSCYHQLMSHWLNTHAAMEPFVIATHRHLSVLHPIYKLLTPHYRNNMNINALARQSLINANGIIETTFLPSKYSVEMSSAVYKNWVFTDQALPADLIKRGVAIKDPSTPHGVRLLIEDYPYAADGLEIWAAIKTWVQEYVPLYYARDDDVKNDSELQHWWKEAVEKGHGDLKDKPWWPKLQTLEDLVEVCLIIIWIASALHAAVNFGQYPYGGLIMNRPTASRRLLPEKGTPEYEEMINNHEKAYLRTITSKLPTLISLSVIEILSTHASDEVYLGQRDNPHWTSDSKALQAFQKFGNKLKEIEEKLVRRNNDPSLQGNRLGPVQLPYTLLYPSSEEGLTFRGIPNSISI
pIC50: −log10 of the molar value.

>  <COMPOUND>
CCOC(=O)COc1ccc(C2=NN(c3ccc(S(C)(=O)=O)cc3)C(c3ccc(Br)cc3)C2)cc1 (stereo not drawn)

>  <SYSTEM TESTED>
15-LOX (Glycine max)

>  <pIC50>
6.31

$$$$
>  <COMPOUND>
CCOC(=O)COc1ccc(C2=NN(c3ccc(S(C)(=O)=O)cc3)C(c3ccc(OC)cc3)C2)cc1 (stereo not drawn) [Compound 15c]

>  <SYSTEM TESTED>
15-LOX (Glycine max)

>  <pIC50>
6.39

$$$$
>  <COMPOUND>
CCOC(=O)COc1ccc(C2=NN(c3ccc(S(C)(=O)=O)cc3)C(c3cc(OC)c(OC)c(OC)c3)C2)cc1 (stereo not drawn) [Compound 15d]

>  <SYSTEM TESTED>
15-LOX (Glycine max)

>  <pIC50>
5.65

$$$$
